Let's look at some molecules and their measured inhibition at 10 min, 10 µM.
Target: CYP2C9 (Homo sapiens, UniProt P11712)
Construct: pooled human liver microsomes were assayed at 0.25 mg/mL concentration; from tissue; host or cells: pooled human liver microsomes
Sequence (P11712 whole entry): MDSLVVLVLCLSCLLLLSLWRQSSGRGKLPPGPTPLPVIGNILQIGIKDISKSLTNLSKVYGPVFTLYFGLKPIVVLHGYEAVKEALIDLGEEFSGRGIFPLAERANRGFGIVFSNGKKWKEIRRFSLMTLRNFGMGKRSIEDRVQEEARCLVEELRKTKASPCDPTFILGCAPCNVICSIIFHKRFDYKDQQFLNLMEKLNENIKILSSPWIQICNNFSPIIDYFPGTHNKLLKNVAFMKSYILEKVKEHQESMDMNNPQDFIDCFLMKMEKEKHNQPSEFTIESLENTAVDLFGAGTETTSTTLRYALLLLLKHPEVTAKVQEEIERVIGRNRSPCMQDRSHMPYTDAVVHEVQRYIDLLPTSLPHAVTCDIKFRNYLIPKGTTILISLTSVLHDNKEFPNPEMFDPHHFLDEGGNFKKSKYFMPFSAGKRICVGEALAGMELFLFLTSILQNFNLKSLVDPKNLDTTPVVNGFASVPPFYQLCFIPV
Test: Cytochrome P450 inhibition
Assay type: in vitro ADME
Settings: probe tolbutamide (4-hydroxylation), pooled human liver microsomes 0.25 mg/mL, tolbutamide, read-out: CYP inhibition (% at 10 μM) 2C9
Method: The inhibitory effects of NIC7 and NIC7w on the metabolism of the five major P450 probe substrates were evaluated using a previously reported method (S. Seino, Diabetologia 55, 2096-2108 (2012)) with minor modifications. […] After vortexing and centrifugation, the supernatant was analyzed with LC-MS/MS. […]
State the value, then name its unit.

CC(=O)c1cccc(NC(=O)Nc2ccc3sc(NS(=O)(=O)c4ccc(C)cc4)nc3c2)c1	34.2%

Next, consider the following molecule.
What value of inhibition at 10 min, 10 µM has been recorded for this entry: Cc1ccc(S(=O)(=O)Nc2nc3cc(NC(=O)NCc4ccccc4)ccc3s2)cc1 39.4%
